Counter-ions that a name gives are not always drawn.
Reported melting point is given for each of the following compounds.
Recorded metric: melting point

> print(dat)
                                   compound  recorded.metric  readout.value
1  O=S(=O)(CCc1cccc2ccccc12)Nc1cccc2ccn(CCN3CCCC3)c12    melting point    46 to 49 °C
2  O=S(=O)(Nc1cccc2ccn(CCN3CCCC3)c12)c1cccc2ccccc12    melting point  196 to 199 °C
3  CN(C)CCn1ccc2cccc(NS(=O)(=O)c3c(Cl)nc4sccn34)c21    melting point    73 to 76 °C
4  CN(C)CCn1ccc2cccc(NS(=O)(=O)c3ccc(-c4ccccc4)cc3)c21    melting point  137 to 140 °C
5  O=S(=O)(Nc1cccc2ccn(CCN3CCCC3)c12)c1c(Cl)nc2sccn12 (as salt: TFA)    melting point    92 to 95 °C
6  Cc1c(S(=O)(=O)Nc2cccc3ccn(CCN(C)C)c23)sc2ccc(Cl)cc12    melting point    57 to 65 °C
